- Test system: NCI-H226 lung
- ASSAY_NAME: NCI tumour cell line growth inhibition, 48 h
ENDPOINT_LABEL: TGI

TGI reported for this molecule CC1(C)CC[C@]2(C(=O)O)CC[C@]3(C)C(=CC[C@@H]4[C@@]5(C)C[C@H](O)[C@H](O)[C@@](C)(C(=O)O)[C@@H]5CC[C@]43C)[C@@H]2C1 : > 100 µM

Just so you know, measured TGI for C/C(=N\NC(=S)NCCCCNC(=S)N/N=C(\C)c1ccccn1)c1ccccc1 came out at > 23.6 µM

Entry O=C(c1nc2ccccc2[nH]c1=O)C(O)c1ccco1 (stereo unspecified) ; TGI = > 100 µM

Source of measurements: PubChem BioAssay (NCI)
